quantity: melting point

melting point in this record for COc1cc2c(cc1OC)CCC=C2 : 90.5 to 91 °C

melting point in this record for CCC(CC)N(Cc1ccc(C(=O)OC)cc1)S(=O)(=O)c1ccc(C)cc1 : 106 to 108 °C

melting point in this record for CO[C@H]1CN(c2c(F)c(N)c3c(=O)c(C(=O)O)cn([C@@H]4C[C@@H]4F)c3c2C)C[C@@H]1C1(N)CC1 : 202 to 204 °C

melting point in this record for CCOC(=O)CNC(=O)CCCCCNC(=O)c1ccc(S(C)(=O)=O)cc1 : 124 to 126 °C

melting point in this record for Cc1nc(CCn2cnc3c2c(=O)n(C)c(=O)n3C)no1 : 112 to 114 °C

melting point in this record for CC(=O)SCC(=O)Nc1ccc(C(=O)NCCO)cc1 : 190 to 192 °C

melting point in this record for CS(=O)(=O)NCc1ccc2[nH]cc(CCN3C(=O)c4ccccc4C3=O)c2c1 : 162 to 165 °C

melting point in this record for S=C(Cc1ccc2ccccc2c1)N1CCCCC1 : 89 to 91 °C

melting point in this record for Cc1cnc(N)c(Br)n1 : 51 to 52 °C

melting point in this record for NC(CN1CCC(=C2c3ccccc3C=Cc3ccccc32)CC1)C(=O)NCC(=O)O (stereo not given) : 175 to 176 °C
